# Target of assay: pooled human IgG
Experimental readout: Enzyme Activity Endpoint Assay (purified): scIgG (ng/µL)
Give the quantity in ng/µL, number only.

Give me measured Enzyme Activity Endpoint Assay (purified): scIgG, please, for this protein: PRT-282 (protein) MVTSVWTKGVTPPAKFTQGEDVFHAPYVANQGWYDITKTFNGKDDLLCGAATAGNMLHWWFDQNKEKIEAYLKKHPDKQKIMFGDQELLDVRKVINTKGDQTNSELFNYFRDKAFPNLSARRIGVMPDLVLDMFINGYYLNVYKTQTTDVNRTYQEKDRRGGIFDAVFTRGDQSKLLTSRHDFKEKNLKEISDLIKKELTEGKALGLSHTYANVRLNHVINLWGADFDSNGNLKAIYVTDSDSNASIGMKKYFVGVNSSGKVAISAKEIKEDNIGAQVLGLFTLSTGQDSWNQTN
413

The reported measurements were obtained from patent US20250027068.
